Where do the numbers come from? From the supplement of paper PMC6757056.

B1: library; a variant is named by its letters at N, in order (parent)
chain: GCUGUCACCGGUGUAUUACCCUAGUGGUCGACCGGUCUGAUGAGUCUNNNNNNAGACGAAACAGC

Variants of: B1
Assay: normalized RNA/DNA level with ligand (relative to sTRSVctl = 100) (log10 (% of sTRSVctl)); ligand: hypoxanthine (xanthine aptamer); higher = less ribozyme self-cleavage, higher mRNA level
Details: ligand concentration (+) RNA-Seq: 5 mM, HEK293T, reporter: mCherry (pCS4076), ligand present: yes
measured-endpoint: normalized RNA/DNA level with ligand (log10)
The reply should be a number, written without any unit.

Example entries begin here.
sequence-text	result-value
GCUGUCACCGGUGUAUUACCCUAGUGGUCGACCGGUCUGAUGAGUCUUCCUGCAGACGAAACAGC	2.01
GCUGUCACCGGUGUAUUACCCUAGUGGUCGACCGGUCUGAUGAGUCUCAACUAAGACGAAACAGC	1.93
GCUGUCACCGGUGUAUUACCCUAGUGGUCGACCGGUCUGAUGAGUCUGGCACCAGACGAAACAGC	1.92
GCUGUCACCGGUGUAUUACCCUAGUGGUCGACCGGUCUGAUGAGUCUCUCGCAAGACGAAACAGC	1.94
GCUGUCACCGGUGUAUUACCCUAGUGGUCGACCGGUCUGAUGAGUCUACCCAAAGACGAAACAGC	1.9

Lab note: next variant to report on.
Please give the measured normalized RNA/DNA level with ligand (log10) for this variant: GCUGUCACCGGUGUAUUACCCUAGUGGUCGACCGGUCUGAUGAGUCUAAUGUAAGACGAAACAGC 1.9
